# SYSTEM_NAME: UniProt Q92830
# TEST_SUMMARY: KAT2A degradation, Western Blot (Jess), NCI-H1048 cells
# Type: cell-based
# Design: degrader, Western blot (Jess)
# SETTINGS: NCI-H1048 cells, KAT2A, 24 h, Western Blot, vs DMSO; read-out: KAT2A NCI-H1048 DC50
MEASUREMENT_LABEL: DC50

Example cases with answers are listed next.
Quick one: DC50 of CN1C[C@H](Nc2cnn(C)c(=O)c2Br)C[C@H](c2ccc(CN3CCN(C4CCC(N5CCC(=O)NC5=O)CC4)CC3)cc2)C1 (stereo partly drawn) [Compound 206] ?
> 30 nM

Consider the compound shown here: Cc1c(N[C@@H]2C[C@H](c3ccc(CN4CCN(c5ccc(F)c(C6CCC(=O)NC6=O)c5)CC4)cc3)CN(C)C2)cnn(C)c1=O (stereo partly drawn) [Compound 342] What is its recorded DC50?
< 1 nM

Continue with the compound presented below.
# get_value(readout='DC50', item= CN1C[C@H](Nc2cnn(C)c(=O)c2Cl)C[C@H](c2ccc(CN3CCC(c4cccc(C5CCC(=O)NC5=O)c4)C(F)(F)C3)cc2)C1 (stereo partly drawn) [Compound 390] )
1 to 30 nM

----------
# SYSTEM_NAME: KAT2A (Homo sapiens, UniProt Q92830)
# Sequence (Q92830 whole entry): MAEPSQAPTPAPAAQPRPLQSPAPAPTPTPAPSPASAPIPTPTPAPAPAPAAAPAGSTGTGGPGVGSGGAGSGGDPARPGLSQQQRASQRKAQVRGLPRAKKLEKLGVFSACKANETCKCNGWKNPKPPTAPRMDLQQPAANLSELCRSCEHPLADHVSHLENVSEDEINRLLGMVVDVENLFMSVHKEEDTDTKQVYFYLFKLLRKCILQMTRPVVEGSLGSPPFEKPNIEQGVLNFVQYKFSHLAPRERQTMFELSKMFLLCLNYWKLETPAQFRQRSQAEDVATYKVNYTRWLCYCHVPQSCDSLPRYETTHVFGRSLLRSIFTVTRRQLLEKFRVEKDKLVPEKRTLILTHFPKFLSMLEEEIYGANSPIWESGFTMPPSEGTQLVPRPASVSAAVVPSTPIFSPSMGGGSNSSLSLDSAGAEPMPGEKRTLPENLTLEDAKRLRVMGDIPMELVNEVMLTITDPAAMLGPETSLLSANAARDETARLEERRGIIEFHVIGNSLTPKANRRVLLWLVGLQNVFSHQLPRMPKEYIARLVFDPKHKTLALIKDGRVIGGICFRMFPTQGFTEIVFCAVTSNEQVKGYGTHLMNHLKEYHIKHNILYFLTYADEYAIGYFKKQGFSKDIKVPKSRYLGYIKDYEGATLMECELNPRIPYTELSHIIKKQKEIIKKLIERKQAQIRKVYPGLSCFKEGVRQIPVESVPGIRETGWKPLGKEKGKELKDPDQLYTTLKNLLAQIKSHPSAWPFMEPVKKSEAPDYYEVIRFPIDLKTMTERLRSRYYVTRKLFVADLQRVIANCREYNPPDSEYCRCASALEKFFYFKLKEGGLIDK
# TEST_SUMMARY: KAT2A degradation, Western Blot (Jess), MOLM-13 cells
# Assay type: cell-based
# Set-up: degrader, Western blot
# SETTINGS: MOLM-13 cells, KAT2A, 24 h, Western Blot, vs DMSO; read-out: KAT2A MOLM-13 DC50
MEASUREMENT_LABEL: DC50

Notebook: pull reported DC50 for KAT2A (Homo sapiens, UniProt Q92830), entry CN1C[C@H](Nc2cnn(C)c(=O)c2Br)C[C@H](c2ccc(C(=O)N3CCN(CC4CCN(c5ccc6c(c5)C(=O)N(C5CCC(=O)NC5=O)C6=O)CC4)CC3)cc2)C1 (stereo partly drawn)
< 1 nM

Lab note: each molecule below needs its DC50 filled in.
1. CN1C[C@H](Nc2cnn(C)c(=O)c2Cl)C[C@H](c2ccc(CN3CCC(Oc4ccc(C5CCC(=O)NC5=O)cc4)CC3)cc2)C1 (stereo partly drawn)
2. CN1C[C@H](Nc2cnn(C)c(=O)c2Br)C[C@H](c2ccc(C(=O)N(C)c3ccc(Oc4cccc5c4C(=O)N(C4CCC(=O)NC4=O)C5=O)cc3)cc2)C1 (stereo partly drawn)
3. CN1C[C@H](Nc2cnn(C)c(=O)c2Br)C[C@H](c2ccc(C(=O)N3CCC4(CCN(c5ccc(C6CCC(=O)NC6=O)cc5)C4)C3)cc2)C1 (stereo partly drawn)
4. CN1C[C@H](Nc2cnn(C)c(=O)c2Br)C[C@H](c2ccc(CN3CCC(Oc4ccc(C5CCC(=O)NC5=O)cc4)CC3)cc2)C1 (stereo partly drawn)
5. CN1C[C@H](Nc2cnn(C)c(=O)c2Cl)C[C@H](c2ccc(CN3CCN(Cc4ccc5c(c4)CN(C4CCC(=O)NC4=O)C5=O)CC3)cc2)C1 (stereo partly drawn)

< 1 nM
1 to 30 nM
< 1 nM
< 1 nM
1 to 30 nM

Field: DC50. Fill in for each record below.
1. CN1C[C@H](Nc2cnn(C)c(=O)c2Br)C[C@H](c2ccc(CNCC3CCC(COc4cccc5c4C(=O)N(C4CCC(=O)NC4=O)C5=O)CC3)cc2)C1 (stereo partly drawn)
2. CN1C[C@H](Nc2cnn(C)c(=O)c2Br)C[C@H](c2ccc(CN3CCN(Oc4cccc5c4CN(C4CCC(=O)NC4=O)C5=O)CC3)cc2)C1 (stereo partly drawn)
3. CN1C[C@H](Nc2cnn(C)c(=O)c2Cl)C[C@H](c2ccc(COc3ccc4c(c3)C(=O)N(C3CCC(=O)NC3=O)C4=O)cc2)C1 (stereo partly drawn)
4. CN1C[C@H](Nc2cnn(C)c(=O)c2Br)C[C@H](c2ccc(C(=O)N3CCN(Cc4cccc(C5CCC(=O)NC5=O)c4)CC3)cc2)C1 (stereo partly drawn)

< 1 nM
< 1 nM
1 to 30 nM
< 1 nM

# map each molecule to its DC50
1. CN1C[C@H](Nc2cnn(C)c(=O)c2Br)C[C@H](c2ccc(C(=O)N(C)Cc3ccc(COc4cccc5c4C(=O)N(C4CCC(=O)NC4=O)C5=O)cc3)cc2)C1 (stereo partly drawn)
2. CN1C[C@H](Nc2cnn(C)c(=O)c2Br)C[C@H](c2ccc(COc3ccc4c(c3)C(=O)N(C3CCC(=O)NC3=O)C4=O)cc2)C1 (stereo partly drawn)

["< 1 nM", "< 1 nM"]

----------
# SYSTEM_NAME: KAT2A (Homo sapiens, UniProt Q92830)
# TEST_SUMMARY: KAT2A degradation, Western Blot (Jess), NCI-H1048 cells
# Type: cell-based
# Parameters: degrader, Western blot (Jess)
# SETTINGS: NCI-H1048 cells, KAT2A, 24 h, Western Blot, vs DMSO; read-out: KAT2A NCI-H1048 DC50
Would you mind telling me the reported DC50 of each entry?

Worked examples, 6 molecules total:
Please report the recorded DC50 for Cc1ncsc1-c1ccc(CNC(=O)[C@@H]2C[C@@H](O)CN2C(=O)[C@@H](NC(=O)COCCOCCNC(=O)c2ccc(C3CC(Nc4cnn(C)c(=O)c4Br)CN(C)C3)cc2)C(C)(C)C)cc1 (some centres unmarked) .
> 30 nM

Would you mind telling me what DC50 value was observed for Cc1cc(N2CCC3(CCN(C(=O)c4ccc([C@H]5C[C@@H](Nc6cnn(C)c(=O)c6Br)CN(C)C5)cc4)CC3)CC2)cc(C)c1C1CCC(=O)NC1=O (some centres unmarked) ?
< 1 nM

Reported DC50, molecule CN1C[C@H](Nc2cnn(C)c(=O)c2Cl)C[C@H](c2ccc(C(=O)N3CCC4(CC3)CCN(c3ccc5c(C6CCC(=O)NC6=O)cncc5c3)CC4)cc2)C1 (some centres unmarked) : ____
< 1 nM

Using the record for Cc1c(N[C@@H]2C[C@H](c3ccc(CN4CCN(c5cncc(C6CCC(=O)NC6=O)c5)CC4)cc3)CN(C)C2)cnn(C)c1=O (some centres unmarked) , report its DC50.
> 30 nM

Returns the measured DC50 for the input molecule. Input: Cc1cc(OC2CCN(C(=O)c3ccc([C@H]4C[C@@H](Nc5cnn(C)c(=O)c5Br)CN(C)C4)cc3)CC2)ccc1C1CCC(=O)NC1=O (some centres unmarked)
< 1 nM

Param item = Cc1cc(N2CCC(N3CCN(C(=O)c4ccc([C@H]5C[C@@H](Nc6cnn(C)c(=O)c6Cl)CN(C)C5)cc4)CC3)CC2)ccc1C1CCC(=O)NC1=O (some centres unmarked) ; retrieve measured DC50.
< 1 nM

Provide DC50 values for the following items, in order.
1. Cc1c(N[C@@H]2C[C@H](c3ccc(CN4CCC(Oc5ccc(C6CCC(=O)NC6=O)cc5)CC4)cc3)CN(C)C2)cnn(C)c1=O (some centres unmarked)
2. CN1C[C@H](Nc2cnn(C)c(=O)c2Cl)C[C@H](c2ccc(C(=O)N3CCC4(CCC(c5ccc(C6CCC(=O)NC6=O)cn5)CC4)CC3)cc2)C1 (some centres unmarked)

1. < 1 nM
2. < 1 nM

----------
# SYSTEM_NAME: KAT2A (Homo sapiens)
# TEST_SUMMARY: KAT2A degradation, Western Blot (Jess), NCI-H1048 cells
# Type: cell-based
# Set-up: degrader, Western blot (Jess)
# SETTINGS: NCI-H1048 cells, KAT2A, 24 h, Western Blot, vs DMSO; read-out: KAT2A NCI-H1048 DC50
MEASUREMENT_LABEL: DC50

Entry under review: Cc1cc(N2CCC3(CCN(C(=O)c4ccc([C@H]5C[C@@H](Nc6c(F)nn(C)c(=O)c6Br)CN(C)C5)cc4)CC3)CC2)ccc1C1CCC(=O)NC1=O (stereo partly drawn) . Reported DC50?
< 1 nM

Look at this compound and give its reported DC50. CN1C[C@H](Nc2cnn(C)c(=O)c2Cl)C[C@H](c2ccc(CN3CC(c4cccc(C5CCC(=O)NC5=O)c4)C3)cc2)C1 (stereo partly drawn)
1 to 30 nM

Need DC50, item Cc1cc(N2CCC3(CCN(C(=O)c4ccc([C@H]5C[C@@H](Nc6cnn(C)c(=O)c6C)CN(C)C5)cc4)CC3)CC2)c(F)cc1C1CCC(=O)NC1=O (stereo partly drawn)
1 to 30 nM

Quick one: DC50 of CN1C[C@H](Nc2cnn(C)c(=O)c2Br)C[C@H](c2ccc(CN3CCN(c4ccc5c(c4)CN(C4CCC(=O)NC4=O)C5=O)CC3)cc2)C1 (stereo partly drawn) ?
< 1 nM

Which DC50 value is on record for CN1C[C@H](Nc2cnn(C)c(=O)c2Cl)C[C@H](c2ccc(CN3CCC(Oc4ccc(C5CCC(=O)NC5=O)cc4)CC3)cc2)C1 (stereo partly drawn) ?
< 1 nM

Which DC50 value is on record for CN1C[C@H](Nc2cnn(C)c(=O)c2Cl)C[C@H](c2ccc(C(=O)N3CCC4(CC3)CCN(c3ccn(C5CCC(=O)NC5=O)c(=O)c3)CC4)cc2)C1 (stereo partly drawn) ?
< 1 nM

Return reported DC50 values for all items listed beneath this line.
1. COc1cc(C2CCC3(CC2)CCN(C(=O)c2ccc([C@H]4C[C@@H](Nc5cnn(C)c(=O)c5C)CN(C)C4)cc2)CC3)ccc1C1CCC(=O)NC1=O (stereo partly drawn)
2. CN1C[C@H](Nc2cnn(C)c(=O)c2Cl)C[C@H](c2ccc(CN3CCN(c4ccc5c(c4)CN(C4CCC(=O)NC4=O)C5=O)CC3)cc2)C1 (stereo partly drawn)
3. Cc1cc(N2CCC3(CC2)CN(C(=O)c2ccc([C@H]4C[C@@H](Nc5cnn(C)c(=O)c5Br)CN(C)C4)cc2)C3)ccc1C1CCC(=O)NC1=O (stereo partly drawn)

< 1 nM
< 1 nM
< 1 nM
